Attribution: patent US20160159924A1

Biological target: T1, recombinant human sc-uPA (human, UniProt P00749 21-431)
T1 construct: 411 amino acid single-chain zymogen expressed in HEK293; the 20-residue signal peptide is not present in the mature protein; also called human single-chain uPA; pro-uPA
Test: SPR, mAb immobilised
pKd: −log10 of the molar value.
We begin with a simple list: items and their reported pKd.

# BINDER, pKd
rows = [
    ("rec0266-0000-0010-VH_G99H (antibody, mouse IgG1, V domains shown) VH: DVKLVESGGGLVKPGGSLKLSCVASGFTFSSYTMSWVRQTPEKRLEWVATISGGGSHIYYADSVKGRFTISRDNAKNTLYLQMSSLKSEDTAIYYCTRDGRDHSWFAYWGQGTLVTVSA VL: DIVMTQSPATLSVTPGDRVSLSCRTSQSIGDYLHWYQQKSHESPRLLIKYVSQSISGIPSRFSGSGSGSDFTLSINSVESEDVGVYYCQNSHSFPLTFGSGTKLELKR", 7.57),
    ("rec0266-0000-0010-VH_G99L (antibody, mouse IgG1, V domains shown) VH: DVKLVESGGGLVKPGGSLKLSCVASGFTFSSYTMSWVRQTPEKRLEWVATISGGGSHIYYADSVKGRFTISRDNAKNTLYLQMSSLKSEDTAIYYCTRDGRDLSWFAYWGQGTLVTVSA VL: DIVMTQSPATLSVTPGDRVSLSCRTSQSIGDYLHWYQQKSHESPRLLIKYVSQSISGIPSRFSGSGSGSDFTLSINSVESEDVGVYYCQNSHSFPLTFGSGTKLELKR", 8.68),
]
